Kindly state IC50 for each of the entries shown.
System Tested: CLK1 (Homo sapiens, UniProt P49759)
Construct: full-length human kinases from Carna Biosciences; purchased Carna Biosciences 04-126
Sequence (P49759 1-526 isoform P49759-3): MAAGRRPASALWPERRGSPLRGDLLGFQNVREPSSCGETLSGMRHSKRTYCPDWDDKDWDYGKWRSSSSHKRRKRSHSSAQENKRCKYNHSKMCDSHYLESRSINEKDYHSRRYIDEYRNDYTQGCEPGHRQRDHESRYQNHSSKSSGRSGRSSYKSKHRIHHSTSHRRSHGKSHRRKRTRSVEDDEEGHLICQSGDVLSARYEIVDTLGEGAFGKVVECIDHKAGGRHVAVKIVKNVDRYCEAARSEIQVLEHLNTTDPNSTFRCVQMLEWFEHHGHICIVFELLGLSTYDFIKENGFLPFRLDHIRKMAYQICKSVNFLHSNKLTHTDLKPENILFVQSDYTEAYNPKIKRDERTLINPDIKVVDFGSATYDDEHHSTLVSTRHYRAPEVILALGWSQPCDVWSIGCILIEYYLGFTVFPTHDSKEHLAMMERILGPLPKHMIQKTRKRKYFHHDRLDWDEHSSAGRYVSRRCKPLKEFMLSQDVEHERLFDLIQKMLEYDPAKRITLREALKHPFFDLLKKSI
Protocol: Kinase TR-FRET assay, CLK1
Type: biochemical
Test Context: full-length human kinase, 10 μM ATP
One number for each entry, in µM.

Take a look at these entries with their results.
- Compound: "N#Cc1nc2ccc(-c3cc(N)nc(N)c3)nc2n1CCCC(F)(F)F"
  Unit Symbol: "µM"
  Result: 0.023
- Compound: "Cc1nc2ccc(-c3cc(N)nc(N)c3)nc2n1C[C@H]1C[C@@H]1c1ccccc1 (single isomer, unassigned)"
  Unit Symbol: "µM"
  Result: 0.025
- Compound: "Cc1nc2ccc(-c3cc(N)nc(N)c3)nc2n1CCc1ccc(F)cc1"
  Unit Symbol: "µM"
  Result: 0.02

Documented IC50 of C=CCCn1c(C)nc2ccc(-c3cc(N)nc(N)c3)nc21 : 0.016

###

System Tested: DYRK1A (Homo sapiens, UniProt Q13627)
Protocol: Kinase TR-FRET assay, DYRK1A
Format: biochemical
Set-up: full-length, wild-type human DYRK1A (NM_001396) with an HA tag; expressed in transfected cells; host or cells: human U2-OS osteosarcoma cells, transient transfection of a pcDNA3.1 plasmid
Test Context: full-length human kinase, 10 μM ATP
Readout Kind: IC50 (µM)
One number for each entry, in µM.

Sample records with IC50:
- Structure Smiles String: "Cc1nc2ccc(-c3cc(N)nc(N)c3)nc2n1C1CCC1"
  IC50 [µM]: 0.002
- Structure Smiles String: "Cc1nc2ccc(-c3cc(N)nc(N)c3)nc2n1Cc1cccnc1"
  IC50 [µM]: 0.07
- Structure Smiles String: "Cc1nc2ccc(-c3cc(N)nc(N)c3)nc2n1C1CCCCC1"
  IC50 [µM]: 0.003
- Structure Smiles String: "CCCCn1c(C)nc2ccc(-c3cc(N)nc(NCc4ccccc4)c3)nc21"
  IC50 [µM]: 0.011
- Structure Smiles String: "Cc1nc2ccc(-c3cc(N)nc(N)c3)nc2n1Cc1cc(OC(F)(F)F)ccc1F"
  IC50 [µM]: 0.029
- Structure Smiles String: "Cc1nc2ccc(-c3cc(N)nc(N)c3)nc2n1CCc1ccc(Cl)c(Cl)c1"
  IC50 [µM]: 0.003

Parameter requested: IC50. Apply to each item below.
1. CCOC(=O)N1CCC(n2c(C)nc3ccc(-c4cc(N)nc(N)c4)nc32)CC1
2. Cn1c(C(F)F)nc2ccc(-c3cc(N)nc(N)c3)nc21
3. Cc1nc2ccc(-c3cc(N)nc(N)c3)nc2n1CCOc1c(F)cccc1F

Response line:
[0.012, 0.004, 0.003]

###

System Tested: DYRK1A (Homo sapiens)
Protocol: Kinase TR-FRET assay, DYRK1A
Format: biochemical
Design: full-length, wild-type human DYRK1A (NM_001396) with an HA tag; expressed in transfected cells; host or cells: human U2-OS osteosarcoma cells, transient transfection of a pcDNA3.1 plasmid
Test Context: full-length human kinase, 10 μM ATP
Readout Kind: IC50 (µM)
Answers are plain numbers, in µM.

Consider the reported IC50 for these compounds:
- Compound: "Cc1nc2ccc(-c3cc(N)nc(N)c3)nc2n1Cc1cccc(Cl)c1"
  IC50 (µM): 0.116
- Compound: "Cc1nc2ccc(-c3cc(N)nc(N)c3)nc2n1CC1CC1(Cl)Cl (stereo not shown)"
  IC50 (µM): 0.006
- Compound: "CCC(c1ccccc1)n1c(C)nc2ccc(-c3cc(N)nc(N)c3)nc21 (stereo not shown)"
  IC50 (µM): 0.104
- Compound: "Cc1nc2ccc(-c3cc(N)nc(N)c3)nc2n1C[C@@H](C)Oc1ccccc1 (single isomer, unassigned)"
  IC50 (µM): 0.008
- Compound: "Cc1nc2ccc(-c3cc(N)nc(N)c3)nc2n1CCOc1ccc2[nH]ccc2c1"
  IC50 (µM): 0.003

I would be grateful if you could provide IC50 for each of the following entries.
1. Cc1nc2ccc(-c3cc(N)nc(N)c3)nc2n1C1CCSCC1
2. Cc1nc2ccc(-c3cc(N)nc(N)c3)nc2n1Cc1ccccc1
3. Cc1nc2ccc(-c3cc(N)nc(N)c3)nc2n1CCCC(F)(F)F
4. Cc1nc2ccc(-c3cc(N)nc(N)c3)nc2n1C1CC(F)(F)C1
5. Cc1nc2ccc(-c3cc(N)nc(N)c3)nc2n1Cc1ccncc1

Response line:
0.005
0.061
0.006
0.003
0.006

Batch lookup, IC50 per entry.
1. Cc1nc2ccc(-c3cc(N)nc(N)c3)nc2n1CCOc1cccc(F)c1
2. Cc1nc2ccc(-c3cc(N)nc(N)c3)nc2n1C1CC1

Response line:
0.003
0.011

###

System Tested: His-TEV-DYRK1A Kinase domain (aa127-485) (Homo sapiens)
Construct: His-TEV-DYRK1A Kinase domain (aa127-485); His tag (N); TEV protease cleavage site (N)
Protocol: Kinase ADP assay (ADP Hunter), DYRK1A kinase domain
Assay type: biochemical
Test Context: 20 μM ATP
Readout Kind: IC50 (µM)
Numbers only, in µM.

# count of solved cases: 3
- Molecule: "Cc1nc2ccc(-c3cc(N)nc(N)c3)nc2n1CC(C)(C)C"
  IC50, µM: 0.018
- Molecule: "CCc1nc2ccc(-c3cc(N)nc(N)c3)nc2n1C1CCCC1"
  IC50, µM: 0.017
- Molecule: "CC(=O)Nc1ccc(CCn2c(C)nc3ccc(-c4cc(N)nc(N)c4)nc32)cc1"
  IC50, µM: 0.008

// each molecule listed below needs its IC50
1. Cc1nc2ccc(-c3ccnc(N)c3)nc2n1CC1CC1
2. Cc1nc2ccc(-c3cc(N)nc(N)c3)nc2n1C[C@H](C)Oc1ccc(Cl)cn1 (single isomer, unassigned)

Response line:
[0.05, 0.165]

###

System Tested: DYRK1A (Homo sapiens, UniProt Q13627)
Protocol: Kinase TR-FRET assay, DYRK1A
Type: biochemical
Set-up: full-length, wild-type human DYRK1A (NM_001396) with an HA tag; expressed in transfected cells; host or cells: human U2-OS osteosarcoma cells, transient transfection of a pcDNA3.1 plasmid
Test Context: full-length human kinase, 10 μM ATP
Param label: returns label 1 when IC50 < 0.005 µM, returns label 0 otherwise, including exact equality.

These solved cases illustrate the format of a correct answer.
- Compound: "Cc1nc2ccc(-c3cc(N)nc(N)c3)nc2n1[C@H]1C[C@H]2C[C@@H]([C@@H]1C)C2(C)C"
  Answer Label: "label 0"
- Compound: "Cc1nc2ccc(-c3cc(N)nc(N)c3)nc2n1C1CCN(C(=O)C(C)C)CC1"
  Answer Label: "label 0"
- Compound: "CCC(CC)n1c(C)nc2ccc(-c3cc(N)nc(N)c3)nc21"
  Answer Label: "label 0"
- Compound: "Cc1nc2ccc(-c3cc(N)nc(N)c3)nc2n1CC(C)(C)C"
  Answer Label: "label 0"
- Compound: "Cc1nc2ccc(-c3cc(N)nc(N)c3)nc2n1CCc1ccc2c(c1)OCO2"
  Answer Label: "label 1"

Prompt line: Please check: IC50 for Cc1nc2ccc(-c3cc(N)nc(N)c3)nc2n1C1CCCC1 , strictly under 0.005 µM or not?
Response line: label 0

###

Would you kindly list IC50 for each of these molecules?
System Tested: CDK9 (Homo sapiens, UniProt P50750)
Construct: full-length human kinases from Carna Biosciences; purchased Carna Biosciences 04-110
Sequence (P50750 whole entry): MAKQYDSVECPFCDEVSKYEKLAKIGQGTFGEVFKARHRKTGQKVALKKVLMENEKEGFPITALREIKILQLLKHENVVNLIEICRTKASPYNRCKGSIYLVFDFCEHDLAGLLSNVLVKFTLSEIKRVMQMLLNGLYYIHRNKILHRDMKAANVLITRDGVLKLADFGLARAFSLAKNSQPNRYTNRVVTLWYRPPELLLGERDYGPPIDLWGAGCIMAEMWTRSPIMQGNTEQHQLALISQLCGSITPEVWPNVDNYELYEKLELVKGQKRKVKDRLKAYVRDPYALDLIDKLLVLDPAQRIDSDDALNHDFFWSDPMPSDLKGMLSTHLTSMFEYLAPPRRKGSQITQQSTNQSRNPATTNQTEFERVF
Sequence (O60563 whole entry partner): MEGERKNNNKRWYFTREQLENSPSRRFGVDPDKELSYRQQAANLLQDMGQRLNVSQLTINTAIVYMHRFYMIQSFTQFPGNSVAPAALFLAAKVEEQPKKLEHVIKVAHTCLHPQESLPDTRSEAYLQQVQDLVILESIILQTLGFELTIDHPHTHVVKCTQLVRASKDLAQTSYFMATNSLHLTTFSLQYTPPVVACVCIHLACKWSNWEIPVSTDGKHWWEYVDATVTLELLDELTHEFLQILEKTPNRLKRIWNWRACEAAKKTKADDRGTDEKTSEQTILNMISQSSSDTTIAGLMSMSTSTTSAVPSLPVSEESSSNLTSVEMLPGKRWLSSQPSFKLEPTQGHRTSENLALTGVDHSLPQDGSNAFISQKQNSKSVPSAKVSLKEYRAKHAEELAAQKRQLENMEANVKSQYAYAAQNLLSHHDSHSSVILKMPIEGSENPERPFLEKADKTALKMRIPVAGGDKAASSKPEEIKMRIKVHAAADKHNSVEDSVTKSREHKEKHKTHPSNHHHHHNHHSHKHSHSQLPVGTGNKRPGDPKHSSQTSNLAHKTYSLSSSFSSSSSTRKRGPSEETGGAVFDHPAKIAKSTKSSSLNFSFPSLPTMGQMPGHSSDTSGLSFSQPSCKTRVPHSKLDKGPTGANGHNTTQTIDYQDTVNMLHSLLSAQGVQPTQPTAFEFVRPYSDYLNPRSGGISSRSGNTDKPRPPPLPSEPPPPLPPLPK
Protocol: Kinase TR-FRET assay, CDK9
Assay type: biochemical
Test Context: full-length human kinase, 10 μM ATP
One number for each entry, in µM.

- Molecule: "Cc1nc2ccc(-c3cc(N)nc(N)c3)nc2n1C[C@@H](C)Oc1cccc(Cl)n1 (single isomer, unassigned)"
  Unit Symbol: "µM"
  IC50: 0.554

# batch: return IC50 for each of the 6 molecules below
1. Cc1nc2ccc(-c3cc(N)nc(N)c3)nc2n1CCOc1ccccc1
2. Cc1nc2ccc(-c3cc(N)nc(N)c3)nc2n1C1CC(F)C1 (centres unmarked)
3. CC(=O)Nc1ccc(CCn2c(C)nc3ccc(-c4cc(N)nc(N)c4)nc32)cc1
4. Nc1cc(-c2ccc3nc(Cl)n(C4CCCC4)c3n2)cc(N)n1
5. Cc1nc2ccc(-c3cc(N)nc(N)c3)nc2n1CCOc1cccc(F)c1
6. Cc1nc2ccc(-c3cc(N)nc(N)c3)nc2n1CCOc1cccc(Cl)c1

Response line:
1. 1.02
2. 0.666
3. 3.53
4. 0.724
5. 1.1
6. 1.52

###

System Tested: DYRK1A (Homo sapiens, UniProt Q13627)
Protocol: Cellular DYRK1 autophosphorylation assay in U2-OS cells
Type: cell-based
Design: full-length, wild-type human DYRK1A (NM_001396) with an HA tag; expressed in transfected cells; host or cells: human U2-OS osteosarcoma cells, transient transfection of a pcDNA3.1 plasmid
Test Context: U2-OS cells transfected with HA-tagged human DYRK1A, 5 hours exposure; read-out: IC50 (μM) P-Ser520-Dyrk1A -Cell assay
Readout Kind: IC50
Form field: result (number plus unit)

Known IC50 results, listed for orientation:
- Molecule: "Cc1nc2ccc(-c3cc(N)nc(N)c3)nc2n1C1CC1 [Example 9]"
  IC50: "0.09 µM"
- Molecule: "Cc1nc2ccc(-c3cc(N)nc(N)c3)nc2n1C[C@H](C)Oc1ccc(F)cc1 (single isomer, unassigned) [Example 129]"
  IC50: "0.13 µM"
- Molecule: "COc1cccc(O[C@@H](C)Cn2c(C)nc3ccc(-c4cc(N)nc(N)c4)nc32)c1 (single isomer, unassigned) [Example 125]"
  IC50: "0.151 µM"

// for each molecule below, give its IC50
1. Cc1nc2ccc(-c3cc(N)nc(N)c3)nc2n1CC(F)F [Example 115]
2. Cc1nc2ccc(-c3cc(N)nc(N)c3)nc2n1CC1CCOC1 (centres unmarked) [Example 41]
3. COc1ccccc1CCn1c(C)nc2ccc(-c3cc(N)nc(N)c3)nc21 [Example 81]
4. Cc1nc2ccc(-c3cc(N)nc(N)c3)nc2n1CCOc1cccc(F)n1 [Example 167]
5. Cc1nc2ccc(-c3cc(N)nc(N)c3)nc2n1CCC1CCCCC1 [Example 15]

Response line:
0.034 µM
0.131 µM
0.094 µM
0.011 µM
0.11 µM

Taken from patent US20180273528A1.
